Quick record of MIC values for S. aureus 29213.
Answers are plain numbers, in µg/mL.

Example compounds with recorded MIC:
INSERT INTO measurements (entry_smiles, target_system, val) VALUES
  ('O=C1c2cc([N+](=O)[O-])cc3cc([N+](=O)[O-])cc(c23)C(=O)N1O', 'S. aureus 29213', 8),
  ('O=C1c2cccc3cc([N+](=O)[O-])cc(c23)C(=O)N1O', 'S. aureus 29213', 8),
  ('Nc1cc2c3c(cccc3c1Cl)C(=O)N(O)C2=O', 'S. aureus 29213', 4),
  ('O=C1c2cccc3c([N+](=O)[O-])c(Br)cc(c23)C(=O)N1O', 'S. aureus 29213', 4),
  ('CN1CCN(c2c(Cl)cc3c4c(cccc24)C(=O)N(O)C3=O)CC1', 'S. aureus 29213', 16);

Hi there! I need MIC for each item below, if you can.
1. CN(C)c1c(Br)cc2c3c(cccc13)C(=O)N(O)C2=O
2. CCOc1cc2c3c(cccc3c1)C(=O)N(O)C2=O
3. COc1cc2c3c(cccc3c1N)C(=O)N(O)C2=O

[4, 8, 4]
